# System: Leishmania amazonensis
# experiment.notes: Antiprotozoal activity against Leishmania amazonensis IFLA/BR/67/PH-8 incubated for 72 hrs by Neubauer chamber based cell counting method
# Format: functional
# applied.conditions: IFLA/BR/67/PH-8, 72 h
Please go through the items and note down their IC50.

stdin: Look up IC50: Cc1ncc([N+](=O)[O-])n1CCO
stdout: > 50 µM

stdin: Thanks! And O=[N+]([O-])c1cncs1 ?
stdout: > 50 µM

stdin: Also O=C(Cn1ccnc1[N+](=O)[O-])NCc1ccccc1 , if possible.
stdout: > 50 µM
